systemUnderTest: Cq-FABP (Cherax quadricarinatus, UniProt L0I6Z9)
Sequence (L0I6Z9 entry or part of it): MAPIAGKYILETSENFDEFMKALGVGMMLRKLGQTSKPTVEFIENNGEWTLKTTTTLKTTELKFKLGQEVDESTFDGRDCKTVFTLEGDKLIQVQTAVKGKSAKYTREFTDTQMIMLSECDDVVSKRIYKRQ
procedureDetails: BODIPY-C16 steady-state fluorescence anisotropy titration and competition
Format: binding
testParameters: calculated from the Kd app,C16 values, using Eq. 5; 200 nM BODIPY-C16; read-out: Kd,FA
reportedEndpoint: Kd (µM)
Give bare numbers, in µM.

Below are 3 compounds. Give each one its Kd.
1. CCCCC/C=C\C/C=C\CCCCCCCC(=O)O
2. CC/C=C\C/C=C\C/C=C\C/C=C\C/C=C\CCCC(=O)O [EPA, cis-5,8,11,14,17-eicosapentaenoic acid]
3. CCCCCCCCCCCCCCCC(=O)O

Response:
1. 3
2. 3.5
3. 1.6

Request: Recorded Kd of CC/C=C\C/C=C\C/C=C\C/C=C\C/C=C\C/C=C\CCC(=O)O [DHA, cis-4,7,10,13,16,19-docosahexaenoic acid] , please.
Response: 6.6

====

systemUnderTest: UniProt L0I6Z9
procedureDetails: BODIPY-C16 steady-state fluorescence anisotropy titration and competition
Format: binding
testParameters: calculated from the IC50 values, using Eq. 6; 200 nM BODIPY-C16, 5 µM Cq-FABP; read-out: Kd,FA
Procedure: The binding of 4,4-difluoro-5, 7-dimethyl-4-bora-3a, 4a-diaza-s-indacene-3-hexadecanoic acid (BODIPY-C16) to Cq-FABP was investigated by measuring the steady-state fluorescence anisotropy parameter using a Beacon instrument (PanVera, Madison, USA), in a cell thermostatically held at 25°C. […] Using a vertical direction for the polarized excitation source, the steady-state fluorescence anisotropy (r) was calculated according to: [drawing 3] […]
Hi there, I'd appreciate the recorded Kd for every entry that follows.
One number for each entry, in nM.

Give me Kd for each of these compounds, listed below.
1. CCCCCCCCCCCCCCCC(=O)O [PA, Palmitic acid]
2. CCCCC/C=C\C/C=C\CCCCCCCC(=O)O [LA, linoleic acid]
3. CC/C=C\C/C=C\C/C=C\C/C=C\C/C=C\CCCC(=O)O [EPA, cis-5,8,11,14,17-eicosapentaenoic acid]
4. CC/C=C\C/C=C\C/C=C\C/C=C\C/C=C\C/C=C\CCC(=O)O [DHA, cis-4,7,10,13,16,19-docosahexaenoic acid]

Response:
1150
3400
2200
7400

====

systemUnderTest: Cq-FABP (Cherax quadricarinatus)
procedureDetails: ANS fluorescence intensity titration and equilibrium displacement of ANS by fatty acids
Assay type: binding
testParameters: from displacement amplitude ΔI by PA plotted against [ANS] (Fig. 2D), 5 µM Cq-FABP; read-out: Kd,ANS
reportedEndpoint: Kd (µM)
Numbers only, in µM.

Request: Please tell me: Kd of O=S(=O)(O)c1cccc2cccc(Nc3ccccc3)c12 [ANS, 8-Anilino-1-naphthalenesulfonate] , system Cq-FABP (Cherax quadricarinatus)?
Response: 26

====

systemUnderTest: Cq-FABP (Cherax quadricarinatus)
procedureDetails: BODIPY-C16 steady-state fluorescence anisotropy titration and competition
Type: binding
testParameters: direct titration, 200 nM BODIPY-C16, increasing Cq-FABP, 25°C, 10% DMSO; read-out: Kd,C16
reportedEndpoint: Kd

Request: State the recorded Kd for this entry: Cc1cc(C)n2c1C=C1C=CC(CCCCCCCCCCCCCCCC(=O)O)=[N+]1[B-]2(F)F [BODIPY-C16, reference compound]
Response: 3.1 µM

====

systemUnderTest: Cq-FABP (Cherax quadricarinatus)
procedureDetails: ANS fluorescence intensity titration and equilibrium displacement of ANS by fatty acids
Format: binding
reportedEndpoint: pKd
One number for each entry, as −log10 of the molar value.

Request: Item `CCCCCCCC/C=C\CCCCCCCC(=O)O` has what recorded pKd?
Response: 5.62
